- protocol-details: Pharmacokinetics of methoxyflavones after single oral administration of KP ethanolic extract in roosters
- Type: in vivo, Thai native roosters (Pradu Hang Dum breed)
- test-parameters: single oral KP extract 200 mg/kg, blood, n = 9
- Experimental: Twenty-seven male Thai native Pradu Hang Dum breed roosters were selected for this study. The sample size was calculated by using the G*power program with the following parameters: α = 0.05, power of test = 0.8, standard deviation = 0.05, and effect size = 0.6. […] To extract methoxyflavones from the blood samples, all samples were extracted by liquid–liquid extraction two times using acetonitrile. […] The samples were then filtered through 0.45-μm syringe filters and analyzed using an HPLC assay. […]
Below, each entry is listed alongside its reported Cl.
Number plus unit, in that order.

COc1ccc(-c2cc(=O)c3c(OC)cc(OC)cc3o2)cc1 :: 82.5 mL/min/kg
COc1cc(OC)c2c(=O)cc(-c3ccccc3)oc2c1 :: 123 mL/min/kg

Please turn your attention to the following entry.
Input line: Given the entry COc1cc(OC)c2c(=O)c(OC)c(-c3ccc(OC)c(OC)c3)oc2c1 , report its measured Cl.
Output line: 53.7 mL/min/kg
